Assay: Cytotoxicity against mouse RAW264.7 cells assessed as reduction in survival rate after 24 hrs by MTT assay
Assay type: cell-based
# CC50 at 24 h listing for each entry below
# unit: µM | format: bare number

Please review the entries below; each comes with its answer.
O=C(Nc1ccc(F)cc1F)c1ccccc1O ... 38.4
COc1ccc2c(=O)n(-c3ccc(I)cc3F)c(=O)oc2c1 ... 30.1
COc1ccc(C(=O)Nc2ccc(-c3ccc(F)cc3F)cc2F)c(O)c1 ... 26.3
O=C(Nc1ccc(I)cc1F)c1ccccc1O ... 23.3
O=c1oc2ccccc2c(=O)n1-c1ccc(I)cc1F ... 23.6
O=C(Nc1ccc(-c2ccc(Cl)cc2Cl)cc1F)c1ccccc1O ... 29.8

Turning now to a further record.
Recorded CC50 at 24 h for `O=c1oc2ccccc2c(=O)n1-c1ccc(Cl)cc1F` , please?
26.5
